Parameter pIC50: see the listing below.
- assayed-target: UniProt:P06276
- Sequence (P06276 whole entry): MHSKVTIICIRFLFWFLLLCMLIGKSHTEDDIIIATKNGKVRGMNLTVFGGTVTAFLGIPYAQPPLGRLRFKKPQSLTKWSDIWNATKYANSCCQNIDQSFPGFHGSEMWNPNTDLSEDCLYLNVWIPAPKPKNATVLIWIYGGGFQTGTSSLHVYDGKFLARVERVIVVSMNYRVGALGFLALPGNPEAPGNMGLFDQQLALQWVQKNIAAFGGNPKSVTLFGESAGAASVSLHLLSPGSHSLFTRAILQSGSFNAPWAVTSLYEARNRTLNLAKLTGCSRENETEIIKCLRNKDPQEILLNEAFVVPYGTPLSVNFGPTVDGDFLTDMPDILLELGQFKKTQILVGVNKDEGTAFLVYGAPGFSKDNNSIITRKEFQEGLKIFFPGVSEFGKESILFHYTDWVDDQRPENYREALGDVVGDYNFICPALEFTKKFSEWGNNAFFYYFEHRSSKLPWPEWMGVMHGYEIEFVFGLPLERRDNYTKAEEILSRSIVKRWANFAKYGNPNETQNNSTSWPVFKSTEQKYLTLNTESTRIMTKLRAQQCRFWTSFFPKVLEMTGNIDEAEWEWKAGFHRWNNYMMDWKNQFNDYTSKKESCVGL
- experimental-protocol: Inhibition of human serum BuChE using butyrylthiocholine as substrate incubated for 15 mins by DTNB reagent based Ellman's method
Keep it numeric: pIC50 is minus log10 of the concentration in mol/L.

Some solved cases for reference:
CCN(C)C(=O)Oc1ccc(-c2cc(=O)c3c(O)cc(OC(=O)N(C)CC)cc3o2)cc1 ... 4.73
CCN(C)C(=O)Oc1ccc(C2CC(=O)c3c(OC(=O)N(C)CC)cc(OC(=O)N(C)CC)cc3O2)cc1 (centres undefined) ... 4.61
CCN(C)C(=O)Oc1ccc(-c2cc(=O)c3c(OC(=O)N(C)CC)cc(OC(=O)N(C)CC)cc3o2)cc1 ... 4.69

Then this compound:
Endpoint output: pIC50 of CCN(C)C(=O)Oc1ccc(C2CC(=O)c3c(O)cc(OC(=O)N(C)CC)cc3O2)cc1 (centres undefined) . Value?
4.69

* * *

- assayed-target: Acetylcholinesterase (Homo sapiens, UniProt P22303)
- Sequence (P22303 whole entry): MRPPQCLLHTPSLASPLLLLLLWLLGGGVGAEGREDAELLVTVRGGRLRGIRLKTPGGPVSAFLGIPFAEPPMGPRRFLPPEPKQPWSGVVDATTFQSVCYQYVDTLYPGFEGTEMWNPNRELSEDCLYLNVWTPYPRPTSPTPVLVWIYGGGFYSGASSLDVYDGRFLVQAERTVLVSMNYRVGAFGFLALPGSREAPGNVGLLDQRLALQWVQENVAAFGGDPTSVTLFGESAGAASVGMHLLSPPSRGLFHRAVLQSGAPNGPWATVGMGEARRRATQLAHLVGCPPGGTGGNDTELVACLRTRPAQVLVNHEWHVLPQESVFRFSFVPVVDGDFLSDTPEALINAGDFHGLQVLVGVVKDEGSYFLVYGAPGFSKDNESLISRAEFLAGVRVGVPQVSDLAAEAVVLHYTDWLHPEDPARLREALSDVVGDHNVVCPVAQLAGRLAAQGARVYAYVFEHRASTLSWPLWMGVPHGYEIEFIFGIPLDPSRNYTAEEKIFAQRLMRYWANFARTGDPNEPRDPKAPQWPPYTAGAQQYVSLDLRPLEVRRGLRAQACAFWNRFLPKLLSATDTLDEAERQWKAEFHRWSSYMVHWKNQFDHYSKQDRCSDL
- experimental-protocol: Inhibition of human erythrocyte AChE using acetylthiocholine as substrate incubated for 15 mins by DTNB reagent based Ellman's method
Parameter pIC50: see the listing below.
Keep it numeric: pIC50 is minus log10 of the concentration in mol/L.

CCN(C)C(=O)Oc1ccc(-c2cc(=O)c3c(O)cc(OC(=O)N(C)CC)cc3o2)cc1 ... 5.10
CCN(C)C(=O)Oc1ccc(C2CC(=O)c3c(O)cc(OC(=O)N(C)CC)cc3O2)cc1 (centres undefined) ... 5.01
CCN(C)C(=O)Oc1ccc(-c2cc(=O)c3c(OC(=O)N(C)CC)cc(OC(=O)N(C)CC)cc3o2)cc1 ... 4.91

Endpoint output: pIC50 of CCN(C)C(=O)Oc1ccc(C2CC(=O)c3c(OC(=O)N(C)CC)cc(OC(=O)N(C)CC)cc3O2)cc1 (centres undefined) . Value?
4.97

* * *

- assayed-target: Butyrylcholinesterase (Rattus norvegicus)
- Sequence (Q9JKC1 whole entry): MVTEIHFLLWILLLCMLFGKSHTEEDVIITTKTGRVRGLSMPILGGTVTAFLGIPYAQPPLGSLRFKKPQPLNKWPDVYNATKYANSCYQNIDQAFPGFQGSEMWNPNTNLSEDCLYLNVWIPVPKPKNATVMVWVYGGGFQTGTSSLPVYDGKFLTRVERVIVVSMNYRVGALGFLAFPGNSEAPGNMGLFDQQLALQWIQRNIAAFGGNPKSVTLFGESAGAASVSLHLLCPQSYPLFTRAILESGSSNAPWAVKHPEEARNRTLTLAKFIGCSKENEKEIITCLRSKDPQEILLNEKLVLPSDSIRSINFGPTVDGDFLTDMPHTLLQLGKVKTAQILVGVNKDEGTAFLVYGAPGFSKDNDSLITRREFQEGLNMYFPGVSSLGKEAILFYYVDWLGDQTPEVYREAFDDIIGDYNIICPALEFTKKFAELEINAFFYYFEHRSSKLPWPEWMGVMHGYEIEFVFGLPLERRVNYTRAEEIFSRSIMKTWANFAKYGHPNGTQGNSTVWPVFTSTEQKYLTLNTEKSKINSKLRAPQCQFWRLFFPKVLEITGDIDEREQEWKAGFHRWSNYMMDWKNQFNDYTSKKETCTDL
- experimental-protocol: Inhibition of rat serum Butyrylcholine esterase using butyrylthiocholine as substrate incubated for 15 mins by DTNB reagent based Ellman's method
property-name: pIC50
Keep it numeric: pIC50 is minus log10 of the concentration in mol/L.

CCN(C)C(=O)Oc1cc(O)c2c(c1)OC(c1ccc(O)cc1)CC2=O (centres undefined) ... 4.55
CON(C)C(=O)Oc1ccc(-c2coc3cc(OC(=O)N(C)OC)cc(O)c3c2=O)cc1 ... 4.57
CCN(C)C(=O)Oc1ccc(-c2coc3cc(OC(=O)N(C)CC)cc(O)c3c2=O)cc1 ... 4.53
CCN(CC)C(=O)Oc1cc(O)c2c(c1)OC(c1ccc(O)cc1)CC2=O (centres undefined) ... 4.57
CON(C)C(=O)Oc1ccc(-c2cc(=O)c3c(O)cc(OC(=O)N(C)OC)cc3o2)cc1 ... 4.71

Endpoint output: pIC50 of CN(C)C(=O)Oc1ccc(C2CC(=O)c3c(O)cc(OC(=O)N(C)C)cc3O2)cc1 (centres undefined) . Value?
4.58

Endpoint output: pIC50 of CCN(C)C(=O)Oc1ccc(C2CC(=O)c3c(OC(=O)N(C)CC)cc(OC(=O)N(C)CC)cc3O2)cc1 (centres undefined) . Value?
4.69

Endpoint output: pIC50 of O=C1CC(c2ccc(OC(=O)N3CCCC3)cc2)Oc2cc(OC(=O)N3CCCC3)cc(O)c21 (centres undefined) . Value?
4.70

Endpoint output: pIC50 of CCN(C)C(=O)Oc1ccc(-c2coc3cc(OC(=O)N(C)CC)cc(OC(=O)N(C)CC)c3c2=O)cc1 . Value?
4.77

Endpoint output: pIC50 of CCN(C)C(=O)Oc1ccc(C2CC(=O)c3c(O)cc(OC(=O)N(C)CC)cc3O2)cc1 (centres undefined) . Value?
4.51

Endpoint output: pIC50 of O=C1CC(c2ccc(OC(=O)N(c3ccccc3)c3ccccc3)cc2)Oc2cc(OC(=O)N(c3ccccc3)c3ccccc3)cc(O)c21 (centres undefined) . Value?
4.60

Endpoint output: pIC50 of CCN(C)C(=O)Oc1ccc(-c2cc(=O)c3c(O)cc(OC(=O)N(C)CC)cc3o2)cc1 . Value?
4.81

Endpoint output: pIC50 of O=C1CC(c2ccc(OC(=O)N3CCOCC3)cc2)Oc2cc(OC(=O)N3CCOCC3)cc(O)c21 (centres undefined) . Value?
4.63

Endpoint output: pIC50 of CCN(CC)C(=O)Oc1ccc(C2CC(=O)c3c(O)cc(OC(=O)N(CC)CC)cc3O2)cc1 (centres undefined) . Value?
4.65

Endpoint output: pIC50 of CCN(C)C(=O)Oc1ccc(-c2cc(=O)c3c(OC(=O)N(C)CC)cc(OC(=O)N(C)CC)cc3o2)cc1 . Value?
4.84

Endpoint output: pIC50 of CON(C)C(=O)Oc1ccc(C2CC(=O)c3c(O)cc(OC(=O)N(C)OC)cc3O2)cc1 (centres undefined) . Value?
4.74
